Data provenance is patent US20170008928A1.

Entries annotated with measured EC50 (CCK-2R)
Target: human cholecystokinin-2 receptor (human, UniProt P32239 1-447)
Sequence (looked up): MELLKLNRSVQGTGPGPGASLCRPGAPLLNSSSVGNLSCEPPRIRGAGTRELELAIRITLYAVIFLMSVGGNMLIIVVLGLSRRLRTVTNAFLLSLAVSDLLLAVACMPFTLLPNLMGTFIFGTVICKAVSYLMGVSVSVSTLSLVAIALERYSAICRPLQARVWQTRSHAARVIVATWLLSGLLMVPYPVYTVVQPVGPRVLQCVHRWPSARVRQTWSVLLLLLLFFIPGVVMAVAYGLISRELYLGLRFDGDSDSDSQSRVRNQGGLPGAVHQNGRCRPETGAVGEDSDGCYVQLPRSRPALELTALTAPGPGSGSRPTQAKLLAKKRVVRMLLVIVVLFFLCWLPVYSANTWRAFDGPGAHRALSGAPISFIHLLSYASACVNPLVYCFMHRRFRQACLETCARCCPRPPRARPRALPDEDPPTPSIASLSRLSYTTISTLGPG
Experiment: cell-based or functional assay
Property: EC50 (CCK-2R)

Substance	Endpoint value
Glu-sTyr-Leu-Gly-Trp-Nle-DMeAsp-MePhe-amide (peptide)	920 nM
Asp-sTyr-Nle-Gly-Trp-Nle-DMeAsp-MePhe-amide (peptide)	> 1000 nM
Asp-sTyr-His-Gly-Trp-Nle-DMeAsp-MePhe-amide (peptide)	> 1000 nM
2-[2-[2-[[2-[2-[2-[[(4S)-4-Carboxy-4-(17-carboxyheptadecanoylamino)butanoyl]amino]ethoxy]ethoxy]acetyl]amino]ethoxy]ethoxy]acetyl-bAsp-Phe(4-sulfomethyl)-Nle-Gly-Trp-Nle-DMeAsp-MePhe-amide (peptide)	> 1000 nM
